Task for the reader: assign each of the following compounds its reported growth.
# System: SF-268 CNS
# experimental details: NCI-60 one-dose screen, 48 h (100 = growth as untreated, 0 = no growth, -100 = all killed)
# condition context: 10 µM unless noted
This is part of a sample that, as a whole, favours compounds with a hit. Of some 83,000 tested, about 20% had one in any assay.
Answers are plain numbers, in %.

Examples with answers:
compound=O=C(Nc1nccs1)c1noc2ccccc12 target_or_system="SF-268 CNS" recorded_endpoint=growth unit_of_measure=% meas_value=103
compound="COc1cc(C2=NN(C=O)C(c3cccc(Nc4ccnc5cc(C(F)(F)F)ccc45)c3)C2)cc(OC)c1OC (centres undefined)" target_or_system="SF-268 CNS" recorded_endpoint=growth unit_of_measure=% meas_value=46.6
compound=CSc1nc(-c2ccc(F)cc2)c(C#N)c(N2CCOCC2)n1 target_or_system="SF-268 CNS" recorded_endpoint=growth unit_of_measure=% meas_value=93.5
compound=Nc1c(C(=O)c2ccccc2)sc2nc(-c3cc4ccccc4o3)cc(-c3ccc(Cl)cc3)c12 target_or_system="SF-268 CNS" recorded_endpoint=growth unit_of_measure=% meas_value=94.8

Please state growth for every compound in the list that follows.
1. C[C@H]1[C@H](C)CC[C@]2(C(=O)OCCCC[P+](c3ccccc3)(c3ccccc3)c3ccccc3)CC[C@]3(C)C(=CC[C@@H]4[C@@]5(C)CC[C@H](OC(=O)C(Cl)Cl)C(C)(C)[C@@H]5CC[C@]43C)[C@H]12
2. COC(=O)c1ccc2c(c1)n(Cc1ccc3ccccc3c1)c[n+]2Cc1ccc2ccccc2c1
3. COC(=O)/C=C/c1cc(OC(C)=O)c2c(c1)C(C(=O)OC)C(c1ccc(OC(C)=O)c(OC(C)=O)c1)O2 (centres undefined)
4. CC(C)(C)c1ccc2oc(=O)n(SC(Cl)(Cl)Cl)c2c1
5. CN1CCN(/C=C2\CC(C(=O)NCc3ccc(Cl)cc3Cl)NC2=O)CC1 (centres undefined)

a:
1. -31.8
2. 40.9
3. 39.6
4. 98.2
5. 97.9

* * *

# Test system: CCRF-CEM leukemia
# experimental details: NCI-60 one-dose screen, 48 h
# condition context: 10 µM unless noted
About 83,000 compounds went through this panel and 20% of them were active in at least one assay; those are over-represented in the sample as a whole. Active and inactive are the calls of the source. The calls were made as follows: active = growth percent below 10; inactive = the rest.
I would appreciate it if you answered using one of these outcomes: 1 = active, -1 = inactive

Answered cases to consult:
molecule=CNS(=O)(=O)c1cccc(-c2ccc3c4c(n(C)c(=O)c3c2)-c2ccccc2C4=O)c1 category=1
molecule=CN1CCN(C(=O)[C@@]2(C)CC[C@]3(C)CC[C@]4(C)C(=CC[C@@H]5[C@@]6(C)CC[C@H](OC(=O)c7cccnc7)C(C)(C)[C@@H]6CC[C@]54C)[C@@H]3C2)CC1 category=1
molecule=C=C(C)[C@@H]1CC[C@]2(C(=O)O)CC[C@]3(C)[C@H](CC[C@@H]4[C@@]5(C)C[C@@H](CC#Cc6ccccc6C)C(=O)C(C)(C)[C@@H]5CC[C@]43C)[C@@H]12 category=-1
molecule="COc1cc(C2=NN(C=O)C(c3cccc(Nc4ccnc5cc(C(F)(F)F)ccc45)c3)C2)cc(OC)c1OC (configuration not stated)" category=-1
molecule=NC[C@@H]1CCN(c2cc3c(cc2F)c(=O)n(N)c(=O)n3Cc2ccc(-c3ccccc3)cc2)C1 category=-1

q: State the result this test recorded for CS(=O)(=O)O[C@@H]1C(=O)N(c2cc3c4ccccc4ccc3c3ccccc23)[C@H]1c1ccc(F)cn1 .
a: -1

q: Next molecule up: O=C(CCc1nnco1)c1nc2ccc([N+](=O)[O-])cc2[nH]1
a: -1

* * *

# System: OVCAR-8 ovarian
# experimental details: NCI-60 one-dose screen, 48 h
# condition context: 10 µM unless noted
About 83,000 compounds went through this panel and 20% of them were active in at least one assay; those are over-represented in the sample as a whole. Active and inactive are the calls of the source. Rule for the calls: active = growth percent below 10; inactive = the rest.
I would appreciate it if you answered using one of these outcomes: label 1 for active, label 0 for inactive

compound=Cc1ccn2c3c(c(C(=O)O)c2c1)C(=O)c1ccccc1C3=O target_or_system="OVCAR-8 ovarian" category="label 0"

Please look at the following compound next.
q: State the result this test recorded for C=C1C(=O)O[C@H]2[C@H]1CC/C(COC(=O)NCC(=O)Nc1ccc(OC)c(C(N)=O)c1O)=C\CC[C@@]1(C)O[C@@H]21 .
a: label 0

* * *

# Test system: UO-31 renal
# experimental details: NCI-60 one-dose screen, 48 h (100 = growth as untreated, 0 = no growth, -100 = all killed)
# condition context: 10 µM unless noted
This is part of a sample that, as a whole, favours compounds with a hit. Of some 83,000 tested, about 20% had one in any assay. Calls of active or inactive are those of the source. The calls were made as follows: active = growth percent below 10; inactive = the rest.
Task for the reader: assign each of the following compounds its reported growth.

Examples with answers:
line_notation=CC(C)C1=C[C@@]23CC[C@H]4[C@](C)(COCCC#N)CCC[C@]4(C)[C@H]2C[C@@H]1[C@@H]1[C@H]3[C@@H](OCCC#N)CC[C@@H]1OCCC#N meas_value="24.8% (inactive)"
line_notation=COc1ccc2[nH]c3nc4cnccc4cc3c2c1 meas_value="71.2% (inactive)"
line_notation=Cc1cc(C)n(-c2nc(-c3cccs3)c(C#N)c(=O)[nH]2)n1 meas_value="89.1% (inactive)"
line_notation=C=C1C(=O)O[C@H]2[C@H]1CC/C(COC(=O)n1ccnc1)=C\CC[C@@]1(C)O[C@@H]21 meas_value="73.3% (inactive)"

We next turn to a different compound, shown below.
q: What growth appears in the records for this compound with UO-31 renal? CC(C)NS(=O)(=O)c1cccc(-c2ccc3c4c(n(CCCN(C)C)c(=O)c3c2)-c2ccccc2C4=O)c1
a: 91% (inactive)

* * *

Task for the reader: assign each of the following compounds its reported growth.
# System: OVCAR-8 ovarian
# experimental details: NCI-60 one-dose screen, 48 h (100 = growth as untreated, 0 = no growth, -100 = all killed)
# condition context: 10 µM unless noted
The panel holds about 83,000 compounds, 20% with a hit somewhere; the sample as a whole holds those more often. Calls of active or inactive are those of the source. How the source made its calls: active means growth percent below 10; inactive means the rest.

Examples with answers:
compound=COc1ccc2nc(-c3ccc(Cl)cc3)cc(-c3nnc(SCC(=O)Nc4ccc(/C(C)=N\O)cc4)o3)c2c1 target_or_system="OVCAR-8 ovarian" recorded_endpoint=growth meas_value="0.357% (active)"
compound=CCOC(=O)C(=Cc1c(-c2ccccc2)[nH]c2ccccc12)C(=O)OCC target_or_system="OVCAR-8 ovarian" recorded_endpoint=growth meas_value="39.4% (inactive)"
compound="COc1cc(C2=NN(c3ccccc3)C(c3cccc(Nc4ccnc5cc(C(F)(F)F)ccc45)c3)C2)cc(OC)c1OC (stereo not given)" target_or_system="OVCAR-8 ovarian" recorded_endpoint=growth meas_value="91.7% (inactive)"
compound=CN(CCC#N)C(=O)Nc1ccccc1 target_or_system="OVCAR-8 ovarian" recorded_endpoint=growth meas_value="102% (inactive)"

q: Data request, read-out growth, for O=C1C(Cl)=C(NCCCN(CCCNC2=C(Cl)C(=O)c3ccccc3C2=O)C2=C(Cl)C(=O)c3ccccc3C2=O)C(=O)c2ccccc21
a: 39.2% (inactive)

* * *

# System: SF-268 CNS
# experimental details: NCI-60 one-dose screen, 48 h (100 = growth as untreated, 0 = no growth, -100 = all killed)
# condition context: 10 µM unless noted
Compounds without any hit were thinned out: in the full panel of roughly 83,000, 20% have a hit.
Please note: 1 applies when growth is 80% or greater, and 0 applies otherwise.

compound="CCN(CC)c1ccc2c(c1)Oc1nc(N)c(C#N)c(N)c1C2Sc1ccc(OC)cc1 (centres undefined)" category=0
compound=C=C(C)[C@@H]1CC[C@]2(C(=O)O)CC[C@]3(C)[C@H](CC[C@@H]4[C@@]5(C)C[C@@H](CC#Cc6ccccc6C)C(=O)C(C)(C)[C@@H]5CC[C@]43C)[C@@H]12 category=0
compound=C#CCN(CCCOc1ccc(Cl)cc1Cl)CCCSC(=O)CCCCCN1/C(=C\C=C2/CCCC(/C=C/C3=[N+](CCCCCC(=O)[O-])c4ccccc4C3(C)C)=C2Cl)C(C)(C)c2ccccc21 category=0
compound=COc1cc(NCC(=O)Nc2cc(Nc3cccc(C(F)(F)F)c3)ncn2)c(Cl)c(OC)c1Cl category=1
compound=O=C1C(=O)c2c(nc3ccc(Br)cn23)-c2ccccc21 category=0

q: Given the entry COc1ccc(Nc2nc(SCC(C)C)nc(-c3ccc(F)cc3)c2C#N)cc1 , answer whether its growth meets or surpasses 80%.
a: 0

q: Next compound up: C=CCn1c(CN2CCN(c3cc4c(cc3F)c(=O)c(C(=O)O)cn4C3CC3)CC2)n[nH]c1=S
a: 1

q: Next compound up: O=CN1N=C(c2ccc(F)cc2)CC1c1cccc(Nc2ccnc3cc(C(F)(F)F)ccc23)c1 (centres undefined)
a: 0

q: Next compound up: CCCCC(=O)Nc1c(C(=O)Nc2ccccc2)sc2nc3c(cc12)C(OC(=O)CCCC)CCC3 (centres undefined)
a: 1

Taken from PubChem BioAssay (NCI).
